Provenance of the data: ChEMBL document CHEMBL1201862

// values below are reported GI50
Test system: UO-31
EXPERIMENTAL DETAILS: NCI tumour cell line growth inhibition, 48 h
Active and inactive are the calls of the source. Rule as the data show it: active = GI50 up to about 1.1 µM and inactive = higher.

Study these solved cases before continuing.
In [3]: df
Out[3]:
                                   compound  measurement_target  measured_endpoint               result
0  C[C@]12CC/C(=N\O)C=C1CC[C@@H]1[C@@H]2CC[C@]2(C)C(=N/O)/C(=C/c3cccnc3)C[C@@H]12               UO-31               GI50    4.9 µM (inactive)
1  COc1ccc(N2C(=O)/C(=C\c3cccc(Oc4ccccc4)c3)SC2c2ccccc2)cc1 (centres undefined)               UO-31               GI50   37.4 µM (inactive)
2  CC(C)(C)c1cc(/C=C/C(=O)CC(=O)/C=C/c2cc(C(C)(C)C)c(O)c(C(C)(C)C)c2)cc(C(C)(C)C)c1O               UO-31               GI50   > 50 µM (inactive)
3       COc1ccccc1-c1cc(O)c2cc3c(cc2n1)OCO3               UO-31               GI50   65.2 µM (inactive)
4  Cc1ncc([N+](=O)[O-])n1CCN(C)CCCCn1ccnc1[N+](=O)[O-]               UO-31               GI50  > 100 µM (inactive)
5  CCOc1cc(-c2nc3ccccn3c2/N=C/c2cc([N+](=O)[O-])cc([N+](=O)[O-])c2O)ccc1O               UO-31               GI50  > 100 µM (inactive)

Prompt: Look up and report GI50, with UO-31 as system, for N#Cc1c(-c2ccccc2)c(C#N)c(=S)n(C2OCC(O)C(O)C2O)c1N (centres undefined)
Response: > 100 µM (inactive)

Prompt: Provide UO-31 GI50 reading for CCSc1cc2c(cc1O)CC[C@@H]1[C@@H]2CC[C@]2(C)[C@@H](O)CC[C@@H]12 .
Response: 15.4 µM (inactive)

Prompt: Name the recorded GI50 of O=[N+]([O-])c1ccc(-c2cnc3ccccn23)cc1 , assay system UO-31.
Response: > 100 µM (inactive)

====

Tested on: HCC 2998
EXPERIMENTAL DETAILS: NCI tumour cell line growth inhibition, 48 h
Activity calls are given as the source filed them. Rule as the data show it: active = GI50 up to about 1.1 µM and inactive = higher.
MEASURED ENDPOINT: GI50

// known answers, use as guide
COMPOUND	RESULT
N#CC1=C(Cl)NC(Cl)=C(C#N)C1c1c(Cl)cccc1Cl	24.1 µM (inactive)
c1ccc2c(c1)NCc1cc3ccccc3nc1O2	> 100 µM (inactive)
Nc1nc(NNc2cccc(F)c2)cc(=O)[nH]1	35.5 µM (inactive)
C[C@]12CCc3nonc3C1CC[C@@H]1C2CC[C@]2(C)C(=O)/C(=N\O)CC12 (stereo partly specified)	> 100 µM (inactive)
NC(=O)c1ccc(NS(=O)(=O)c2ccc(N)cc2)nc1	> 100 µM (inactive)

Prompt: Report the value of GI50 obtained on HCC 2998 for CC(C)C1=CC23CCC4C(C)(C(=O)O)CCCC4(C)C2CC1C1C(=O)N(c2ccccc2N2C(=O)C4C5CC6C7(C)CCCC(C)(C(=O)O)C7CCC6(C=C5C(C)C)C4C2=O)C(=O)C13 (stereo unspecified) .
Response: 4.01 µM (inactive)

Prompt: Jot down GI50 (HCC 2998) of Cc1cnccc1/N=N/c1ccc(N(C)C)cc1 .
Response: 13.5 µM (inactive)

Prompt: State GI50 on HCC 2998. Entry: Nc1ccccc1S(=O)(=O)c1ccccc1
Response: > 100 µM (inactive)

Prompt: Quote HCC 2998 GI50 for entry CC(=O)/C(=C\c1ccccc1O)C(=O)Nc1ccccc1C .
Response: 15.7 µM (inactive)

Prompt: Find GI50 for N#Cc1ccc(C2SCc3nc4ccccc4n32)cc1 (stereo unspecified) on HCC 2998 and write it down.
Response: > 100 µM (inactive)

Prompt: Param request: GI50 | system HCC 2998 | item CC(C)(C)C1=C(Br)C(Br)(C(C)(C)C)OP1(=O)c1ccccc1 (stereo unspecified)
Response: > 100 µM (inactive)
